- Measured target: T1, ADAR1 Zβ (Homo sapiens, UniProt P55265 291-366)
- T1 sequence: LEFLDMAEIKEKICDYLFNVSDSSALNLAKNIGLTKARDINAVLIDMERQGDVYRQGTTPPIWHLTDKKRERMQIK
- Measurement notes: ITC; 35 C; N=1.12; 20 mM NaPi pH 6.4, 100 mM KCl, 1 mM DTT, 0.5 mM EDTA (LiCl replaces KCl where noted); ITC 35 C; MST 25 C with 20 nM protein (labelling without DTT); competition
- Test parameters: protein: recombinant; tags: N-terminal 6xHis, thrombin site, T7 tag; parallel G4
pKd: −log10 of the molar value.
Recorded metric: pKd

> print(dat)
                                     binder  recorded.metric   val
1  GGGAGGGCGGGAGGG (structured_RNA) [ALU-GQRNA]              pKd  5.74
